Test system: multiple species and strains
Test: Minimal inhibitory concentration (MIC) and MIC90 determination, broth microdilution (CLSI M07-A10)
Settings: S9: P. aeruginosa ATCC BAA-2113
Binned MIC S9; ranges: band 1 = under 4, band 2 = from 4 up to 7, band 3 = 7 and over

Which of the defined bands does the recorded MIC S9 of CNc1cc(F)c(F)c2c1[nH]c1ncc(-c3cnc4c(c3)c(=O)c(C(=O)O)cn4C)c(N3CC[C@H]4CN(C)C[C@H]43)c12 [Example 3.03A] sit within?
band 1

Which of the defined bands does the recorded MIC S9 of CNc1cc(F)c(F)c2c1[nH]c1ncc(-c3cnc4c(c3)c(=O)c(C(=O)O)cn4C3CCNC3)c(N(C)C)c12 (stereo not drawn) sit within?
band 1

Which of the defined bands does the recorded MIC S9 of CNc1cc(F)c(C#N)c2c1[nH]c1ncc(-c3cnc4c(c3)c(=O)c(C(=O)O)cn4C)c(N3CC[C@H]4CN(C)CC43)c12 (stereo partly drawn) sit within?
band 3

Which of the defined bands does the recorded MIC S9 of CNc1cc(F)c(C#N)c2c1[nH]c1ncc(-c3cnc4c(c3)c(=O)c(C(=O)O)cn4C)c(N3CC[C@H]4CN(C)C[C@H]43)c12 sit within?
band 3

Which of the defined bands does the recorded MIC S9 of CNc1cc(F)c(F)c2c1[nH]c1ncc(-c3cnc4c(c3)c(=O)c(C(=O)O)cn4NC)c(N3CC[C@H]4CN(C)C[C@H]43)c12 [Example 3.01A] sit within?
band 1

Which of the defined bands does the recorded MIC S9 of CNc1cc(F)c(C#N)c2c1[nH]c1ncc(-c3cnc4c(c3)c(=O)c(C(=O)O)cn4NC)c(N3CC[C@H]4CN(C)CC43)c12 (stereo partly drawn) sit within?
band 2

Which of the defined bands does the recorded MIC S9 of CNc1cc(F)cc2c1[nH]c1ncc(-c3cnc4c(c3)c(=O)c(C(=O)O)cn4C)c(N3CC[C@H]4CN(C)C[C@H]43)c12 [Example 3.04A] sit within?
band 2

Which of the defined bands does the recorded MIC S9 of CNc1cc(F)c(F)c2c1[nH]c1ncc(-c3cnc4c(c3)c(=O)c(C(=O)O)cn4NC)c(N3CC[C@H]4CN(C)CC43)c12 (stereo partly drawn) sit within?
band 2

---

System: K. pneumoniae (ATCC10031)
Experiment: 50% growth inhibitory concentration (IC50) determination assay
Assay type: cell-based
Conditions: Klebsiella pneumoniae, Iso-Sensitest broth, 0.098 = detection limit
Procedure: Stock compounds in DMSO were serially two-fold diluted (range from 50 to 0.097 μM final concentration) in 384 wells microtiter plates and inoculated with 49 μL the bacterial suspension in Iso-Sensitest broth medium to have a final cell concentration of ˜5×10^5 CFU/mL in a final volume/well of 50 μL/well. Microtiter plates were incubated at 35±2° C. Bacterial cell growth was determined with the measurement of optical density at λ=600 nm each 20 minutes over a time course of 16 h. […]
measureName: IC50

Value wanted: IC50 (K. pneumoniae (ATCC10031)) of entry CNc1cc(F)c(F)c2c1[nH]c1ncc(-c3cnc4c(c3)c(=O)c(C(=O)O)cn4NC)c(N3C[C@@H]4OCCN(C)[C@@H]4C3)c12 [Example 3.13B]
< 0.098 µM

Value wanted: IC50 (K. pneumoniae (ATCC10031)) of entry CNc1cc(F)c(F)c2c1[nH]c1ncc(-c3cnc4c(c3)c(=O)c(C(=O)O)cn4C)c(N3CCO[C@@H](CN(C)C)C3)c12 [Example 4.02B]
< 0.098 µM

Value wanted: IC50 (K. pneumoniae (ATCC10031)) of entry CNc1cc(F)c(F)c2c1[nH]c1ncc(-c3cnc4c(c3)c(=O)c(C(=O)O)cn4C)c(N3CC4[C@H](CCN4CCO)C3)c12 (stereo partly drawn)
< 0.098 µM

Value wanted: IC50 (K. pneumoniae (ATCC10031)) of entry CNc1cc(F)c(F)c2c1[nH]c1ncc(-c3cnc4c(c3)c(=O)c(C(=O)O)cn4CCN3CCN(C)CC3)c(N(C)C)c12
< 0.098 µM

Value wanted: IC50 (K. pneumoniae (ATCC10031)) of entry CNc1cc(F)c(F)c2c1[nH]c1ncc(-c3cnc4c(c3)c(=O)c(C(=O)O)cn4[C@@H](C)CO)c(N3CCO[C@@H](C)C3)c12
0.14 µM

Value wanted: IC50 (K. pneumoniae (ATCC10031)) of entry CNc1cc(F)c(F)c2c1[nH]c1ncc(-c3cnc4c(c3)c(=O)c(C(=O)O)cn4C)c(N3CC4[C@H](CCN4CCCO)C3)c12 (stereo partly drawn)
< 0.098 µM

---

System: K. pneumoniae (ATCC10031)
Assay: 50% growth inhibitory concentration (IC50) determination assay
Format: cell-based
Conditions: Klebsiella pneumoniae, Iso-Sensitest broth, 0.098 = detection limit
measureName: IC50

Could you tell me which IC50 is on file for CNc1cc(F)cc2c1[nH]c1ncc(-c3cnc4c(c3)c(=O)c(C(=O)O)cn4C)c(N3CC[C@H]4CCN(C)C4C3)c12 (stereo partly drawn) ?
< 0.098 µM

Could you tell me which IC50 is on file for CNc1cc(F)c(F)c2c1[nH]c1ncc(-c3cnc4c(c3)c(=O)c(C(=O)O)cn4C)c(N3CC4[C@H](CCN4C)C3)c12 (stereo partly drawn) ?
< 0.098 µM

Could you tell me which IC50 is on file for CNc1cc(F)c(F)c2c1[nH]c1ncc(-c3cnc4c(c3)c(=O)c(C(=O)O)cn4C)c(N3CCC4C3CCCN4C)c12 (stereo not drawn) ?
< 0.098 µM

Could you tell me which IC50 is on file for CNc1cc(F)c(F)c2c1[nH]c1ncc(-c3cnc4c(c3)c(=O)c(C(=O)O)cn4N(C)C)c(N3CCOCC3)c12 ?
0.112 µM

Could you tell me which IC50 is on file for CNc1cc(F)c(F)c2c1[nH]c1ncc(-c3cnc4c(c3)c(=O)c(C(=O)O)cn4C)c(N3C[C@@H]4OCCN(C)[C@H]4C3)c12 [Example 3.24A] ?
< 0.098 µM

Could you tell me which IC50 is on file for CNc1cc(F)c(F)c2c1[nH]c1ncc(-c3cnc4c(c3)c(=O)c(C(=O)O)cn4C)c(N3CCSCC3)c12 ?
0.257 µM

---

Experiment: Single dose PK study (SDPK) in female CD-1 mouse
Format: in vivo
Details: female, CD-1, plasma; MOUSE IV, 1.0 mg/kg-Solution; read-out: CL total
Could you please report measured clearance for the items listed next?
Only the number, expressed in mL/min/kg, is required.

Could you tell me which clearance is on file for CNc1cc(F)c(F)c2c1[nH]c1ncc(-c3cnc4c(c3)c(=O)c(C(=O)O)cn4C)c(N3CC4[C@@H](C3)OCCN4C)c12 (stereo partly shown) ?
84.3

Could you tell me which clearance is on file for CNc1cc(F)c(F)c2c1[nH]c1ncc(-c3cnc4c(c3)c(=O)c(C(=O)O)cn4C)c(N3CC[C@H]4CN(C)CC43)c12 (stereo partly shown) ?
94.8

Could you tell me which clearance is on file for CNc1cc(F)c(F)c2c1[nH]c1ncc(-c3cnc4c(c3)c(=O)c(C(=O)O)cn4C)c(N3CCC(O)CC3)c12 ?
66.3

Could you tell me which clearance is on file for CNc1cc(F)c(F)c2c1[nH]c1ncc(-c3cnc4c(c3)c(=O)c(C(=O)O)cn4NC)c(N3CC[C@@H]4CN(C)C[C@@H]43)c12 [Example 3.01B] ?
105

Could you tell me which clearance is on file for CNc1cc(F)c(F)c2c1[nH]c1ncc(-c3cnc4c(c3)c(=O)c(C(=O)O)cn4CCN(C)C)c(N(C)C)c12 ?
91.3

Could you tell me which clearance is on file for CNc1cc(F)cc2c1[nH]c1ncc(-c3cnc4c(c3)c(=O)c(C(=O)O)cn4NC)c(N3CCOCC3)c12 ?
57.4

Could you tell me which clearance is on file for CNc1cc(F)cc2c1[nH]c1ncc(-c3cnc4c(c3)c(=O)c(C(=O)O)cn4CC(C)O)c(N3CCOCC3)c12 (stereo not shown) ?
83.5

Could you tell me which clearance is on file for CNc1cc(F)cc2c1[nH]c1ncc(-c3cnc4c(c3)c(=O)c(C(=O)O)cn4C)c(N3CC[C@H]4CN(C)C[C@H]43)c12 [Example 3.04A] ?
68.9

Could you tell me which clearance is on file for CNc1cc(F)c(F)c2c1[nH]c1ncc(-c3cnc4c(c3)c(=O)c(C(=O)O)cn4C3CCNC3)c(N(C)C)c12 (stereo not shown) ?
58.8

Could you tell me which clearance is on file for CNc1cc(F)cc2c1[nH]c1ncc(-c3cnc4c(c3)c(=O)c(C(=O)O)cn4NC)c(N3CC[C@H]4CN(C)C[C@H]43)c12 [Example 3.05A] ?
50.5

Could you tell me which clearance is on file for CNc1cc(F)c(F)c2c1[nH]c1ncc(-c3cnc4c(c3)c(=O)c(C(=O)O)cn4C)c(N3CC[C@H]4CCN(C)C4C3)c12 (stereo partly shown) ?
98.4

Could you tell me which clearance is on file for CNc1cc(F)c(F)c2c1[nH]c1ncc(-c3cnc4c(c3)c(=O)c(C(=O)O)cn4C)c(N3CC4[C@H](CCN4C)C3)c12 (stereo partly shown) ?
69.6

Could you tell me which clearance is on file for CNc1cc(F)c(F)c2c1[nH]c1ncc(-c3cnc4c(c3)c(=O)c(C(=O)O)cn4NC)c(N3C[C@H]4CCN(C)[C@H]4C3)c12 [Example 3.07A] ?
77.4

Could you tell me which clearance is on file for CNc1cc(F)c(C#N)c2c1[nH]c1ncc(-c3cnc4c(c3)c(=O)c(C(=O)O)cn4C)c(N3CC[C@H]4CN(C)C[C@H]43)c12 ?
62.7

Could you tell me which clearance is on file for CNc1cc(F)c(F)c2c1[nH]c1ncc(-c3cnc4c(c3)c(=O)c(C(=O)O)cn4NC)c(N3CC[C@H]4CN(C)C[C@H]43)c12 [Example 3.01A] ?
81.9

Could you tell me which clearance is on file for CNc1cc(F)c(F)c2c1[nH]c1ncc(-c3cnc4c(c3)c(=O)c(C(=O)O)cn4C)c(N3C[C@H]4CCN(C)[C@H]4C3)c12 [Example 3.08A] ?
86.7

Could you tell me which clearance is on file for CNc1cc(F)cc2c1[nH]c1ncc(-c3cnc4c(c3)c(=O)c(C(=O)O)cn4NC)c(N3CC[C@H]4CN(C)CC43)c12 (stereo partly shown) ?
86.5

Could you tell me which clearance is on file for CNc1cc(F)c(F)c2c1[nH]c1ncc(-c3cnc4c(c3)c(=O)c(C(=O)O)cn4C)c(N3CCC4(CN(C)CCO4)C3)c12 (stereo not shown) ?
98.1

Could you tell me which clearance is on file for CCn1cc(C(=O)O)c(=O)c2cc(-c3cnc4[nH]c5c(NC)cc(F)c(F)c5c4c3N3CC4CC3CO4)cnc21 (stereo not shown) ?
100

Could you tell me which clearance is on file for CNc1cc(F)c(F)c2c1[nH]c1ncc(-c3cnc4c(c3)c(=O)c(C(=O)O)cn4C)c(N3CC(N(C)C)C4(CC4)C3)c12 (stereo not shown) ?
85.7

Could you tell me which clearance is on file for CNc1cc(F)c(F)c2c1[nH]c1ncc(-c3cnc4c(c3)c(=O)c(C(=O)O)cn4C)c(N3CC[C@H]4CN(C)C[C@H]43)c12 [Example 3.03A] ?
66.9

Could you tell me which clearance is on file for CNc1c(F)c(F)cc2c1[nH]c1ncc(-c3cnc4c(c3)c(=O)c(C(=O)O)cn4C3CCNC3)c(N(C)C)c12 (stereo not shown) ?
98.7
